Biological target: Arachidonate 5-lipoxygenase (Rattus norvegicus)
Experiment: Ability to inhibit 5-lipoxygenase in rat
quantity-measured: IC50 (µM)
# value in µM; strip the unit string

Would you kindly share the measured IC50 for `CN1C[C@@H](c2cccc(OCc3ccc4ccccc4n3)c2)OC1=O` ? 19.6
